B1: TPR t1 (parent)
chain: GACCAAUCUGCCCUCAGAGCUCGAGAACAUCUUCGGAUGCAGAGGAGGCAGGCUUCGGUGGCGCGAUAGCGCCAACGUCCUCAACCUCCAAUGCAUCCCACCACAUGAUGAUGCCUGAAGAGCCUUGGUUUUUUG

Variants of: B1
PROCEDURE DETAILS: polymerase ribozyme fitness, log enrichment relative to wild type (log ratio); higher = more active; in vitro selection for triplet polymerase activity
Examples of variants with documented polymerase ribozyme fitness (log ratio) follow.

SEQ | polymerase ribozyme fitness (log ratio)
GACCAAUCUGCCCUCAGAGCUCGAGAACAUCUUCGGAUGCAGAGGAGGCAGGCUUCGGUGGCGCGAUAGCGCCAACGUCCUCAACCUCCAAUGCAUCCCACCGCAUGAUGAUGUCUGAAGAGCCUUGGUUUUUUG [A103G C114U] | -3
GACCAAUCUGCCCUCAGAGCUUGAGAACAUCUUCGGAUGCAGAGGAGCCAGGGUUAGGUGGCGCGAUAGCGCCAACGUCCUCAACCUCCAAUGCAUCCCACCACAUGAUGAUGCCUGAAGAGCCUUGGUUUUUUG [C22U G48C C53G C56A] | -4.86
GACCAAUCUGCCCUCAGAGCUCGAGAACAUCUUCGGAUGCAGAGGAGGCAGGCUUCGGUGGCACGAUAGCGCCAACGUCCUCAACCUCCAAUGCAUCCCACCACAUGAUGAUUCCUGAAGAGCCUUCGUUUUUUG [G63A G113U G127C] | -4.93
